Test system: NCI-H226
Test: NCI tumour cell line growth inhibition, 48 h
Calls of active or inactive are those of the source. Rule as the data show it: active = GI50 up to about 1.1 µM and inactive = higher.
Permitted responses: 1 (active), -1 (inactive)

Before answering, review these 6 worked examples.
O=C1NC(=S)N/C1=C/c1c(-c2ccccc2)[nH]c2ccccc12 : -1
CN(C)c1ccc(/C=c2\c3ccccc3n3c2cc(-c2ccccc2)[n+]3C)cc1 : 1
CC1=CC(=O)N(n2c(Cc3ccc(Cl)cc3)n[nH]c2=O)C1=O : -1
CN(C)c1ccc(/C=C/C(=O)c2ccc(O)cc2)cc1 : -1
O=C(OCC1OC(c2nn[nH]n2)C(OC(=O)c2ccccc2)C1OC(=O)c1ccccc1)c1ccccc1 (stereo unspecified) : -1
Cc1nc(N)c(N2CCN(C#N)CC2)c(O)n1 : -1

Q: Per the records of this test, what outcome belongs to COc1cc2c(cc1O)NC(=S)[C@@H]1CCCN1C2=O ?
A: -1

Q: Give the logged outcome of this assay for the following compound: O=C1C2C=CC1C1C(=O)OC(=O)C21 (stereo unspecified)
A: -1

Q: What is the recorded call for this compound in the test? NS(=O)(=O)c1nnc(/N=C(/CCC(=O)O)C(=O)O)s1
A: -1

Q: Just curious, what result did CCc1ccc(Nc2cc(=O)[nH]c(=S)n2C)cc1 get here?
A: -1

Q: Any idea what this test logged for CSc1ccc(NC(=O)C2c3[nH]c4ccccc4c3C3CCC(C(C)(C)C)CC3C2C(=O)O)cc1 (stereo unspecified) ?
A: -1

====

GI50 reference
Tested on: K562
Assay: NCI tumour cell line growth inhibition, 48 h
The source made the active and inactive calls. No stated cut-off is given here; in the data, active = GI50 up to about 1.1 µM and inactive = higher.

Sample answers from the record:
CC1=NN(C(=O)c2ccccc2O)C(=O)/C1=C/c1cccc([N+](=O)[O-])c1 : 0.364 µM (active)
COCC12CC(CC1=O)C1C2ON2c3ccccc3C(=O)C12c1ccccc1 (centres undefined) : 63.7 µM (inactive)
Nc1nc(=O)n(C2OC(CO)C(O)C2O)c2ncc(-c3ccc(-c4ccccc4)cc3)nc12 (centres undefined) : > 100 µM (inactive)
N/C(=N\N=C\c1c[nH]c2ccccc12)Nc1ccccc1 : 0.278 µM (active)
O=C(/C(=C/c1cccs1)c1ccccc1)c1ccccc1 : > 100 µM (inactive)

Form field GI50 for item CC1=C(C(=O)NCc2ccccc2)C(c2ccccc2C)C(C(=O)NCc2ccccc2)=C(C)N1 on K562: 38.5 µM (inactive)

The compound O=C(/C=C1\Nc2ccc([N+](=O)[O-])cc2N\C1=C/C(=O)c1ccc(F)cc1)c1ccc(F)cc1 , when measured on K562, yielded GI50 of 22.2 µM (inactive)

I looked up Sc1nnc(COc2ccc(Cl)cc2)[nH]1 and its GI50 for K562 was > 100 µM (inactive)

I looked up COC(=O)[C@H](Cc1c[nH]c2ccccc12)NP(=O)(OCCC#N)OCC1OC(n2cc(C)c(=O)[nH]c2=O)CC1N=[N+]=[N-] (some centres undefined) and its GI50 for K562 was > 100 µM (inactive)

====

Tested on: MOLT-4
Experiment: NCI tumour cell line growth inhibition, 48 h
Activity calls are given as the source filed them. No stated cut-off is given here; in the data, active = GI50 up to about 1.1 µM and inactive = higher.
A collection of compounds and their measured GI50

CCCO/S(=N\S(=O)(=O)c1ccccc1)c1ccccc1[N+](=O)[O-] (stereo not drawn) : > 100 µM (inactive)
COc1cc(C(=O)O)cc2c1[nH]c1ccccc12 : > 25 µM (inactive)
Clc1cc2c(cc1Cl)CC(NCCN1CCCC1)CC2 (stereo not drawn) : 20.5 µM (inactive)
O=C1C=CC(=NNc2ccccc2)C=CC1=O : 3.1 µM (inactive)
O=C1C2C=CC1C1C(=O)OC(=O)C21 (stereo not drawn) : > 100 µM (inactive)

The measured GI50 associated with CC(C)c1ccc2c(c1)CCC1C(C)(C)[C@@H](O)CC[C@]21C (stereo partly drawn) reads 22.1 µM (inactive)

Entry Oc1ccccc1/C=N/Nc1nc(N/N=C/c2ccccc2O)nc(N/N=C/c2ccccc2O)n1 , GI50 reported as 10.5 µM (inactive)

====

Test system: DU-145
Assay: NCI tumour cell line growth inhibition, 48 h
Active and inactive are the calls of the source. Rule as the data show it: active = GI50 up to about 1.1 µM and inactive = higher.
Respond only with the outcome that fits, drawn from Y = active, N = inactive

Use the examples below as a reference point.
Cc1ccc2cccc3c2c1CC1(C3=O)S(=O)(=O)OCCOS1(=O)=O : N
NC(=O)CC(N)c1nnn[nH]1 (centres undefined) : N
O=C1CCN2c3ccccc3[C@H]3Cc4cccc(c4[C@@H]2C3)CCO1 : N
O=C(Nc1ccccc1C(=O)O)/C(=C/c1ccccc1)NC(=O)c1ccccc1 : N
COc1cc2nc3c(=C(C#N)C#N)c4ccccc4n3c(=O)c2cc1OC : N

Q: Please indicate how the test categorized Cc1ccc(O)c(-c2csc(NCN3CCN(CNc4nc(-c5cc(C)ccc5O)cs4)CC3)n2)c1 .
A: N

Q: Could you kindly confirm the outcome this assay logged for COCC([C@@H](O)C(O)C(=O)NCC[C@@H](C)c1nc(/C=C/CC2OC3(C[C@H](O)C2C)OC(C(C[C@H](O)C(C)[C@H](O)C(C)/C=C(C)/C(C)=C/C=C/C(C)=C/C#N)OC)[C@@H](OP(=O)(O)O)C3(C)C)co1)N(C)C (some centres undefined) ?
A: Y

Q: For this compound, state the assay outcome: CCOC(=O)C1(C/C=C/CCl)CCCC1=O (centres undefined)
A: N

Q: Test call, this compound: Cc1c2cccc-2ccc2c3ccccc3n(C(=O)c3ccc(Cl)cc3)c12
A: N

Q: # fetch the recorded call for CCOP(=O)(/C=C\n1ccc(=O)[nH]c1=O)OCC here
A: N

Q: Assay result, entry CC(=O)N1c2ccccc2C2=NN=C(N(C)C)SC21 (centres undefined) — outcome?
A: N

Q: Assay result, entry CC1(C)[C@@H]2C[C@H]1C(Cc1ccccc1C[C@H]1c3cc(-c4ccccn4)ncc3[C@H]3C[C@@H]1C3(C)C)c1cc(-c3ccccn3)ncc12 (some centres undefined) — outcome?
A: Y

Q: Which result was noted for this compound in the test: CCOC(=O)c1ccc(Nc2c3c(nc4ccccc24)CCCC3)cc1
A: N

Q: Tell me the recorded outcome of this test for COc1ccc(C(C)NNC(=O)c2ccncc2)c(OC)c1 (centres undefined) .
A: N

====

System: SK-MEL-5
Test: NCI tumour cell line growth inhibition, 48 h
Activity calls are given as the source filed them. No stated cut-off is given here; in the data, active = GI50 up to about 1.1 µM and inactive = higher.
Parameter call: string, one of TRUE (active), FALSE (inactive)

The following molecules have reported results that may help.
N=C(N)c1ccc(/N=N\c2c(O)c(C(=O)Nc3ccccc3)cc3ccccc23)cc1 : FALSE
NS(=O)(=O)c1nnc(/N=C(/CCC(=O)O)C(=O)O)s1 : FALSE
NCCNCCCNC(=O)c1cc(-c2ccccc2)nc2ccccc12 : FALSE
Cc1nc(Nc2ccc([N+](=O)[O-])cc2)sc1C(=O)/C=C/c1ccc(N(C)C)cc1 : FALSE
NC(=O)n1ncc(Cl)c(Cl)c1=O : FALSE
COc1cccc(NC(=O)CC(=O)n2nc(-c3ccccc3)c(/N=N/c3ccc(Cl)cc3)c2-c2ccccc2)c1 : FALSE

Q: Each molecule tested received a call. Report the one for O=C(N/N=C\c1cccc2ccccc12)Nc1ccc([N+](=O)[O-])cc1 .
A: FALSE

====

Test system: OVCAR-3
Assay: NCI tumour cell line growth inhibition, 48 h
Active and inactive are the calls of the source. Rule as the data show it: active = GI50 up to about 1.1 µM and inactive = higher.
Reply using exactly one outcome from 1 = active, 0 = inactive

COc1cc(C(=O)Nc2cccc3ccccc23)c(Br)c(OC)c1OC : 0

Q: Hello, I am checking results. What call was entered for O=[N+]([O-])c1cccc2nc3ccccc3c(NCCCN3CCOCC3)c12 ?
A: 1

Q: Could you please tell me the result logged for O=C(COc1ccc(Cl)cc1Cl)N/N=C/C=C/c1ccc([N+](=O)[O-])o1 in this assay?
A: 0

Q: So what was the verdict on CCCCCCCC(=O)N/N=C/c1ccc(Sc2nccn2C)c([N+](=O)[O-])c1 in this test?
A: 0

Q: Which outcome did this test record for the compound N#CC1C(=O)NC23CCCCC2C1c1ccccc1O3 (stereo unspecified) ?
A: 0

Q: Recorded test outcome, item CSc1nc2nc(C(O)C(O)C(O)CO)cnc2c(=O)[nH]1 (stereo unspecified)
A: 0

Q: Recorded call for O=CCCn1[nH]c(=O)ccc1=O ?
A: 0

Q: Hey, what did the test say about COc1ccccc1/C=C/c1cnccn1 ?
A: 0

Q: Test call for this compound, please: CN(C)c1ccc(/C=C2\N=C(c3ccccc3)N(c3ccc4c(c3)Sc3cc(N5C(=O)/C(=C/c6ccc(N(C)C)cc6)N=C5c5ccccc5)ccc3N4)C2=O)cc1
A: 0

Q: I would be grateful if you could indicate the recorded call for C=CC(Br)(CBr)CCC(Br)C(C)(C)Cl (stereo unspecified) .
A: 0

Q: Each compound tested received a call. Report the one for CN1CCCC2C(c3ccccc3)C(C3=NCCCC3)C(c3ccccc3)CC21 (stereo unspecified) .
A: 0

====

Test system: M19-MEL
Assay: NCI tumour cell line growth inhibition, 48 h
Activity calls are given as the source filed them. No stated cut-off is given here; in the data, active = GI50 up to about 1.1 µM and inactive = higher.
In this section, each of the compounds is paired with its reported GI50.

Record for C=CCCCN1CCCC(C)C1=S (centres undefined) under target or system M19-MEL: GI50 reported as > 100 µM (inactive)

Summary line: CC1OC(O)CC(OC(=O)c2ccccc2)C1OC(=O)c1ccccc1 (centres undefined) , M19-MEL, reported GI50 = 17.5 µM (inactive)

Field GI50 (M19-MEL), entry CC(C)C(Sc1nc(-c2ccccc2)c(-c2ccccc2)[nH]1)C(=O)NN (centres undefined) : > 100 µM (inactive)

I looked up CC(=O)NNc1nc(C)c(C(/C=C/c2ccc(Cl)cc2)=N/NC(=S)NN)s1 and its GI50 for M19-MEL was > 100 µM (inactive)

GI50 for M19-MEL with input O=c1[nH]c(=O)n(C2OC(COP(=O)(O)OP(=O)(O)O)C(O)C2O)cc1F (centres undefined) equals 1.82 µM (inactive)

Observed GI50 on M19-MEL, entry c1csc(C[N+]23CN4CN(CN(C4)C2)C3)c1 , equals 25.9 µM (inactive)

Recorded GI50 for CCCO/S(=N\S(=O)(=O)c1ccccc1)c1ccccc1[N+](=O)[O-] (centres undefined) on M19-MEL was > 100 µM (inactive)

Lab note: compound C[S+]([O-])c1ccc(COP(N)(=O)N(CCCl)CCCl)cc1 (centres undefined) tested on M19-MEL; recorded GI50 was > 100 µM (inactive)

The compound COc1ccc(/C(Cl)=C(\C=O)c2ccc(OC)cc2)cc1 , when measured on M19-MEL, yielded GI50 of 93.3 µM (inactive)
